Cited source: the Kinase Knowledgebase extract (Sharma et al. 2016)

target: PIK3CD (Human) (UniProt O00329); experiment: Enzyme Assay
Sequence (O00329 whole entry, looked up): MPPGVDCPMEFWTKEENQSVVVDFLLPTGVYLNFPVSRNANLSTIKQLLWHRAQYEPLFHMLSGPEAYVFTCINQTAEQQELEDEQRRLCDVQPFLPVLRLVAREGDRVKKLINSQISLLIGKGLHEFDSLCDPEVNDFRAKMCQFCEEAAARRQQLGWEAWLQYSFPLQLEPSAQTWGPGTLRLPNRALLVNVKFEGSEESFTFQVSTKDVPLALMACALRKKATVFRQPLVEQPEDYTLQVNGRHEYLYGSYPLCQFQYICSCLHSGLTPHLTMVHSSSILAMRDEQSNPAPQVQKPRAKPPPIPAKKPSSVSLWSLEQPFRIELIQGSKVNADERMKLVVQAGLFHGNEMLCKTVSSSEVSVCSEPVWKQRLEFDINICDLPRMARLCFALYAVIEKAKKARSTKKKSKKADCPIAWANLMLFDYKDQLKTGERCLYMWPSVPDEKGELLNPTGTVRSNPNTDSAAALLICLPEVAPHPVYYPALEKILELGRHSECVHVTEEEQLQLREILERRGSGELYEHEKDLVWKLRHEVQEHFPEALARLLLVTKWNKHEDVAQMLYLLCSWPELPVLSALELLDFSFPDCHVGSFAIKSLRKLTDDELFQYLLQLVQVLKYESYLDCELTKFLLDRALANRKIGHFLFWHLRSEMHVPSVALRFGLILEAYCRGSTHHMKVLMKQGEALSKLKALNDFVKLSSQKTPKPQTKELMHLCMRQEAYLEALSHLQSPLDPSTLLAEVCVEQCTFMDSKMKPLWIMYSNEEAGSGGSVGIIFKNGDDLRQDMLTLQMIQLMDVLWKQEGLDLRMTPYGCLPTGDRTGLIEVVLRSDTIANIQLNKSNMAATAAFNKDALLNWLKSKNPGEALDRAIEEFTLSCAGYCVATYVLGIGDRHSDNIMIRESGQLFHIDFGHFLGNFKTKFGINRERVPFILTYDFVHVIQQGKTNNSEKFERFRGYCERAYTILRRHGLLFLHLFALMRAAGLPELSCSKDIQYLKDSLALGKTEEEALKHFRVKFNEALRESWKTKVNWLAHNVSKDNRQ
pIC50: −log10 of the molar value.
Property: pIC50

# Smiles Str, pIC50
measured = [
    ("Cc1nc(N)nc(N2CCC[C@H]2c2nc3cccc(C(F)(F)F)c3c(=O)n2-c2cncnc2)c1C#N", 7.00),
]

P = N#Cc1c(N)ncnc1N1CCC[C@H]1c1nc2cccc(C(F)(F)F)c2c(=O)n1-c1ccccc1
Q = N#Cc1c(N)ncnc1N1C[C@@H](O)C[C@H]1c1nc2ccc(F)c(Cl)c2c(=O)n1-c1ccccc1
Query block: Would you mind telling me which has the lower recorded pIC50 between P and Q ? Answer with the label corresponding to your selection.
Result block: Q
(Q: 7.33, P: 7.92)

* * *

target: PIK3CD (Human); test: Enzyme Assay
pIC50: −log10 of the molar value.
Property: pIC50

# example entries with known answers
# Smiles Str, Value Observed
data = [
    ("Cc1nc(N)nc(N2C[C@@H](F)C[C@H]2c2nc3cccc(C(F)(F)F)c3c(=O)n2-c2cccnc2)c1C#N", 7.59),
    ("Cc1c(F)ccc2nc([C@@H]3CCCN3c3ncnc(N)c3C#N)n(-c3ccccc3)c(=O)c12", 7.96),
    ("Cc1nc(N)nc(N2C[C@@H](O)C[C@H]2c2nc3cccc(C(F)(F)F)c3c(=O)n2N2CCOCC2)c1C#N", 7.18),
    ("O=c1c2c(F)cc(F)cc2nc([C@@H]2CCCN2c2ncnc3[nH]cnc23)n1-c1ccccc1", 6.92),
    ("Cc1nc(N)nc(N2C[C@@H](O)C[C@H]2c2nc3cccc(OC(F)F)c3c(=O)n2-c2ccccc2)c1C#N", 7.12),
]

A = Cn1cnc2c(N3CCC[C@H]3c3nc4cccc(Cl)c4c(=O)n3C3CC3)nc(N)nc21
B = COc1ccc(-n2c([C@@H]3CCCN3c3ncnc4[nH]cnc34)nc3cccc(Cl)c3c2=O)cn1
Query block: Would you mind telling me which has the lower recorded pIC50 between A and B ? Answer with the label corresponding to your selection.
Result block: A
(A: 5.84, B: 6.18)

* * *

biological target: PIK3CD (Human); assay: Enzyme Assay
pIC50: −log10 of the molar value.
Property: pIC50

# Smiles Str, pIC50
measured = [
    ("N#Cc1c(N)ncnc1N1CCC[C@H]1c1nc2cccc(Cl)c2c(=O)n1C1CCCCC1", 7.80),
    ("CS(=O)(=O)c1cccc2nc([C@@H]3CCCN3c3ncnc(N)c3C#N)n(-c3ccccc3)c(=O)c12", 8.15),
    ("Cc1nc(N)nc(N2CCC[C@H]2c2nc3cccc(C(F)(F)F)c3c(=O)n2-c2cncc(F)c2)c1C#N", 7.30),
]

a = N#Cc1c(N)ncnc1N1CCC[C@H]1c1nc2ccc(F)c(F)c2c(=O)n1-c1ccccc1
b = Nc1nc(N2C[C@@H](F)C[C@H]2c2nc3cccc(C(F)(F)F)c3c(=O)n2-c2ccccc2)c2nc[nH]c2n1
Query block: Which of the two items, a and b , has the greater recorded pIC50? Answer with the label corresponding to your selection.
Result block: b
(b: 7.74, a: 7.05)

* * *

target: PIK3CA (human) (UniProt P42336); experiment: Enzyme Assay
Sequence (P42336 whole entry, looked up): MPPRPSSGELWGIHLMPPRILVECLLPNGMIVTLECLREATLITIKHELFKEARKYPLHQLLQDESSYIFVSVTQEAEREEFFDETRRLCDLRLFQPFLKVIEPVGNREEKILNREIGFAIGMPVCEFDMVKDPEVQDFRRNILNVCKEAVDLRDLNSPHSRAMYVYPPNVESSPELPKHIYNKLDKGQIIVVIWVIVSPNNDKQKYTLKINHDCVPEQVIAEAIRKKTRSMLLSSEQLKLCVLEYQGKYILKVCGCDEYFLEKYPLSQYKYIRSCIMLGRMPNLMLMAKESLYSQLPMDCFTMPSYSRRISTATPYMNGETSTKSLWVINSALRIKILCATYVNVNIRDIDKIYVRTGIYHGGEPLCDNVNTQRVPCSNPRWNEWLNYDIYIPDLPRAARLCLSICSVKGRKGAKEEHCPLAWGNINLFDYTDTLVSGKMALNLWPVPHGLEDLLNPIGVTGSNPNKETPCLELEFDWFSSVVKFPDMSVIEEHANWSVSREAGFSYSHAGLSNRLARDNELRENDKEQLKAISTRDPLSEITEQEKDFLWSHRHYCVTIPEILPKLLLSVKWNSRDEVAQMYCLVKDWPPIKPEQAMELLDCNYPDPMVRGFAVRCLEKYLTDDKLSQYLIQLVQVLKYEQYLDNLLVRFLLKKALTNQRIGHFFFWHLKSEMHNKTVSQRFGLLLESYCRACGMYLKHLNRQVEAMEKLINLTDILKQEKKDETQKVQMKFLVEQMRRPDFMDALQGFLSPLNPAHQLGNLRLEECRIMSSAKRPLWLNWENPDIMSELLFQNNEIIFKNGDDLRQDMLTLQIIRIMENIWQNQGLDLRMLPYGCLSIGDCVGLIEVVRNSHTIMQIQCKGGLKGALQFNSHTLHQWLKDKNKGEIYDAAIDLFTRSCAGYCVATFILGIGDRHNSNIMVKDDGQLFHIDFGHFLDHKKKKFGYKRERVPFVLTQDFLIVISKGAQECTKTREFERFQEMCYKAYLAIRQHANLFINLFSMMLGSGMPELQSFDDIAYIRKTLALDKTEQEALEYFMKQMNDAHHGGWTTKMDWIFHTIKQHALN
Property: IC50 (nM)

# Smiles Str, Property, Value Observed
rows = [
    ("Cc1nc(N)nc(N2C[C@@H](F)C[C@H]2c2nc3cccc(C(F)(F)F)c3c(=O)n2-c2cccnc2)c1C#N", "IC50", 1300),
    ("Cc1nc(N)nc(N2CCC[C@H]2c2nc3cccc(S(C)(=O)=O)c3c(=O)n2-c2ccccc2)c1C#N", "IC50", 1100),
    ("CO[C@H]1C[C@@H](c2nc3cccc(Cl)c3c(=O)n2-c2ccccc2)N(c2ncnc(N)c2C#N)C1", "IC50", 1300),
]
